- study_system: UniProt O43614
- assay_info: Radioligand Binding Assay II ([3H]-SB649868 competition, cell membranes)
- measurement_parameters: read-out: binding II hOx2R Kd
quantity_name: Kd (nM)

| smi | quantity_name | result_number |
| --- | --- | --- |
| Cc1ccc([C@H](C)NC(=O)COc2cc(C)c3c(-c4nc(C)cs4)nn(C)c3n2)cc1 | Kd | 3 |
| Cc1ccc([C@H](C)NC(=O)COc2cc(C)c3c(-c4ncccn4)nn(C)c3n2)cc1 | Kd | 13 |
| COc1ccc([C@H](C)NC(=O)COc2cc(C(F)F)c3c(-c4cc(C)oc4C)nn(C)c3n2)cc1 | Kd | 65 |
| COc1ccnc(-c2nn(C)c3nc(OCC(=O)N[C@@H](C)c4ccc(C)cc4)cc(C)c23)c1 | Kd | 17 |

====

- study_system: human orexin 2 receptors (Homo sapiens (Human))
- Sequence (O43614 whole entry): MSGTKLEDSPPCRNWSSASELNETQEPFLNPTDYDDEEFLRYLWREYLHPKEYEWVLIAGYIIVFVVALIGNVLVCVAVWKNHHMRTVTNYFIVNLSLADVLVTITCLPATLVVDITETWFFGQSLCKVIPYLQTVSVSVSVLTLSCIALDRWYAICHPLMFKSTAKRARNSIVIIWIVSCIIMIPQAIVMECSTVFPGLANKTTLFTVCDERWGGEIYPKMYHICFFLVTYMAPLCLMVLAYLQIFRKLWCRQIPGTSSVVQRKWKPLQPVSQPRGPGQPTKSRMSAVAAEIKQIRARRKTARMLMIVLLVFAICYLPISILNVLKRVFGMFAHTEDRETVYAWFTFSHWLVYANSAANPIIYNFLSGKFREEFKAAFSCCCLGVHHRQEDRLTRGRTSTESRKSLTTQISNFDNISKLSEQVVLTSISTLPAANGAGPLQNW
- assay_info: Calcium Accumulation in Cells (FLIPR), antagonism of orexin A
- measurement_parameters: antagonism of orexin A, Cheng-Prusoff corrected; read-out: FLIPR hOx2R Ki
Form field: log10 Ki (one value per entry).
quantity_name: log10 Ki (log10 of the value in nM)

| compound | log10 Ki |
| --- | --- |
| Cc1cc(OCC(=O)NC2CCc3cc(F)ccc32)nc2c1c(C1CC1)nn2C (centres unmarked) | 2.77 |
| Cc1ccc([C@H](C)NC(=O)COc2cc(C(F)F)c3c(-c4ccccc4)nn(C)c3n2)cc1 | 0.85 |
| Cc1ccc([C@H](C)NC(=O)COc2cc(C)c3c(-c4cccc(C)n4)nn(C)c3n2)cc1 | 1.75 |
| CC(NC(=O)COc1cc(C(F)(F)F)c2c(-c3ccccc3)nn(C)c2n1)c1cccnc1 (centres unmarked) | 2.76 |
| Cc1ccc(C(C)NC(=O)COc2cc(C)c3c(C4CC4)nn(C)c3n2)cn1 (centres unmarked) | 2.72 |
| COc1ccc([C@H](C)NC(=O)COc2cc(C)c3c(C4CC4)nn(C)c3n2)cc1 | 1.94 |
| Cc1nn(C)c(C)c1C(C)NC(=O)COc1cc(C(F)(F)F)c2c(-c3ccccc3)nn(C)c2n1 (centres unmarked) | 1.00 |
| Cn1nc(-c2cccc(F)c2)c2c(C(F)(F)F)cc(OCC(=O)N[C@H]3CCc4ccccc43)nc21 | 1.52 |

====

- study_system: human orexin 1 receptors (Homo sapiens (Human))
- Sequence (O43613 whole entry): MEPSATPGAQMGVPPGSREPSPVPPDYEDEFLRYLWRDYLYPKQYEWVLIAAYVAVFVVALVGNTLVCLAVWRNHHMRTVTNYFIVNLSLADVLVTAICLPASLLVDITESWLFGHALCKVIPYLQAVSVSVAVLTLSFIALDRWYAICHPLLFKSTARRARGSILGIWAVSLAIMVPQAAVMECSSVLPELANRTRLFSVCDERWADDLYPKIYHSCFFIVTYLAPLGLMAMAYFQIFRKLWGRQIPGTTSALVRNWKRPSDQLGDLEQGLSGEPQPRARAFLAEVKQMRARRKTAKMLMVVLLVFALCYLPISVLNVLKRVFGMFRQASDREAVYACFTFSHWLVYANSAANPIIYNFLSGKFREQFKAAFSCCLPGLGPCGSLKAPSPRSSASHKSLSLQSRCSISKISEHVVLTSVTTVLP
- assay_info: Radioligand Binding Assay II ([3H]-SB649868 competition, cell membranes)
- measurement_parameters: read-out: binding II hOx1R Kd
Form field: Kd (one value per entry).

| smi | study_system | Kd, nM |
| --- | --- | --- |
| COc1ccnc(-c2nn(C)c3nc(OCC(=O)N[C@@H](C)c4ccc(C)cc4)cc(C)c23)n1 | human orexin 1 receptors (Homo sapiens (Human)) | 7 |
| COc1ccc2c(c1)CC[C@@H]2NC(=O)COc1cc(C(F)F)c2c(C3CC3)nn(C)c2n1 | human orexin 1 receptors (Homo sapiens (Human)) | 63 |
| Cc1ccc(C(C)(C)NC(=O)COc2cc(C)c3c(C4CC4)nn(C)c3n2)cc1 | human orexin 1 receptors (Homo sapiens (Human)) | 1010 |
| Cc1ccc([C@H](C)NC(=O)COc2cc(C)c3c(-c4cncs4)nn(C)c3n2)cc1 | human orexin 1 receptors (Homo sapiens (Human)) | 46 |
